src = PubChem BioAssay (NCI)

system: NCI-H23 lung; assay: NCI tumour cell line growth inhibition, 48 h; in the data active means GI50 below about 0.43 µM; inactive means the rest
Labels: YES for active, NO for inactive

# compound, group
rows = [
    ("O=c1[nH]cnc2nc(-c3ccc(N(CCCl)CCCl)cc3)[nH]c12", "NO"),
    ("CCN(CC)CCOc1nc2cc(OC)c(OC)cc2c2c1-c1ccc(OC)cc1C2=O", "NO"),
    ("NC1CCCCC1N.O=S(=O)([O-])CCCN1CCN(CCO)CC1.O=S(=O)([O-])CCCN1CCN(CCO)CC1.[Pt+4]", "NO"),
    ("N#Cc1c(NCc2ccccc2)nc(NCc2ccccc2)c(C#N)c1-c1cccc(O)c1", "NO"),
    ("C=C(C)[C@@H]1CC[C@]2(C)[C@H](CC=C3[C@@H]4[C@H](C)[C@@H](C)CC[C@]4(CO)CC[C@]32C)[C@@]1(C)CCCN", "NO"),
    ("CC(=O)NS(=O)(=O)c1ccc(-n2nc(-c3ccccc3)cc2C2=CC(=O)C=CC2=O)cc1", "NO"),
    ("N#CC1CCc2c(c(-c3cn[nH]c3C(F)(F)F)nc3c(F)cc4[nH]ncc4c23)C1 (configuration not stated)", "NO"),
    ("NC(=S)N/N=C\\c1nccc2c(C(F)(F)C(F)(F)C(F)(F)F)cccc12", "YES"),
    ("C#CCOc1cccc(Nc2ncc3ncn(C4CCN(C(=O)CCl)C4)c3n2)c1 (configuration not stated)", "NO"),
    ("Cc1cc(S(=O)(=O)Nc2nc3cc(-c4ccsc4)sc3c(=O)n2N)c(S)cc1Cl", "NO"),
    ("C=C1C[C@@H]2[C@H](CC[C@]3(C)C(=O)CC[C@@H]23)[C@@]2(C)C=CC(=O)C=C12", "NO"),
    ("N=C1C(c2nc(-c3ccc(Br)cc3)cs2)=C(O)CN1CC1CCCO1 (configuration not stated)", "NO"),
    ("CN(C)c1ccc(N=C(C#N)c2nc(N)nc(N3CCN(c4ccccc4)CC3)n2)cc1", "NO"),
    ("O=c1oc2cc(OS(=O)(=O)c3ccccc3)ccc2c2c1CCCCC2", "NO"),
    ("CN1N=Nc2c(C(F)(F)F)nn(-c3ccccc3)c2N(C)C1=O", "NO"),
    ("O=C(O)c1ccc2cccnc2c1O", "NO"),
    ("CC[C@H](C)[C@H](NC(=O)c1nccn1C)C(=O)N(C)[C@H](C[C@@H](OC(C)=O)c1nc(C(=O)N[C@@H](Cc2ccccc2)C[C@H](C)C(=O)OC)cs1)C(C)C", "NO"),
]
